So I've got a bunch of molecules here, and I need their pIC50 values.
Target: Substance-P receptor (Cavia porcellus)
Test: Displacement of specific binding of [3H]SP to tachykinin receptor 1 from the isolated guinea pig tracheal strips
Where a SMILES comes first, the peptide text is derived from it. [ ]: non-standard residue; d: D form. The star is where a group is joined. Boc = CC(C)(C)OC(=O)*; OBn = c1ccc(CO*)cc1; For = O=C*
One number for each entry, as −log10 of the molar value.

See these solved cases before continuing.
[
  {
    "molecule": "CC(C)(C)OC(=O)NCC(=O)N[C@H](Cc1cn(C=O)c2ccccc12)C(=O)N[C@@H](Cc1ccccc1)C(=O)OCc1ccccc1",
    "pIC50": 6.38
  },
  {
    "molecule": "CC(C)(C)OC(=O)N[C@@H](CO)C(=O)N[C@H](Cc1cn(C=O)c2ccccc12)C(=O)N[C@@H](Cc1ccccc1)C(=O)OCc1ccccc1 (Boc-Ser-[dW](For)-Phe-OBn)",
    "pIC50": 6.96
  },
  {
    "molecule": "CC(C)(C)OC(=O)N[C@@H](CCC(N)=O)C(=O)N[C@H](Cc1cn(C=O)c2ccccc12)C(=O)N1C(C(=O)c2ccccc2)CC[C@H]1C(=O)OCc1ccccc1 (some centres not stated)",
    "pIC50": 6.35
  },
  {
    "molecule": "CC(C)(C)OC(=O)N[C@@H](CCC(N)=O)C(=O)N[C@@H](Cc1cn(C=O)c2ccccc12)C(=O)N[C@@H](Cc1ccccc1)C(=O)OCc1ccccc1",
    "pIC50": 6.44
  },
  {
    "molecule": "C[C@@H](O)[C@H](NC(=O)OC(C)(C)C)C(=O)N[C@H](Cc1cn(C=O)c2ccccc12)C(=O)N[C@@H](Cc1ccccc1)C(=O)OCc1ccccc1 (Boc-Thr-[dW](For)-Phe-OBn)",
    "pIC50": 6.96
  }
]

I need pIC50 for every entry listed below, if you could help.
1. CC(C)(C)OC(=O)N[C@@H](CCC(N)=O)C(=O)N[C@H](Cc1cn(C=O)c2ccccc12)C(=O)N[C@@H](Cc1ccccc1)C(=O)OCc1ccccc1
2. CC(C)(C)OC(=O)N[C@@H](CCC(N)=O)C(=O)N[C@H](Cc1cn(C=O)c2ccccc12)C(=O)N1Cc2ccccc2CC1C(=O)OCc1ccccc1 (some centres not stated)
3. CC(C)(C)OC(=O)N[C@@H](CCC(N)=O)C(=O)N[C@H](Cc1cn(C=O)c2ccccc12)C(=O)N[C@@H](Cc1ccccc1)C(=O)OCc1ccc(Cl)cc1
4. O=C(N[C@H](Cc1c[nH]c2ccccc12)C(=O)N[C@@H](Cc1ccccc1)C(=O)N[C@H](Cc1c[nH]c2ccccc12)C(=O)OCc1ccccc1)OCc1ccccc1
5. O=C(N[C@H](Cc1c[nH]c2ccccc12)C(=O)N[C@@H](Cc1ccccc1)C(=O)N[C@H](Cc1c[nH]c2ccccc12)C(=O)O)OCc1ccccc1

[7.05, 6.85, 6.00, 5.00, 4.62]

---

Record form. Attribute: pIC50. Fill in for each entry.
Target: Substance-P receptor (Cavia porcellus)
Experiment: Displacement of specific binding of [3H]SP to tachykinin receptor 1 from the isolated guinea pig tracheal strips
Give bare numbers, as −log10 of the molar value.

The examples below pair each entry with its known result.
[
  {
    "smi": "CC(C)(C)OC(=O)N[C@@H](CCC(N)=O)C(=O)N[C@H](Cc1cn(C=O)c2ccccc12)C(=O)N[C@@H](Cc1ccccc1)C(=O)OCCc1ccccc1",
    "metric": "pIC50",
    "numeric.readout": 6.30
  },
  {
    "smi": "CC(C)(C)OC(=O)N[C@@H](CCC(N)=O)C(=O)N[C@H](Cc1c[nH]c2ccccc12)C(=O)N[C@@H](Cc1ccccc1)C(=O)OCc1ccccc1",
    "metric": "pIC50",
    "numeric.readout": 6.26
  },
  {
    "smi": "CN(C(=O)[C@@H](Cc1cn(C=O)c2ccccc12)NC(=O)[C@H](CCC(N)=O)NC(=O)OC(C)(C)C)[C@@H](Cc1ccccc1)C(=O)OCc1ccccc1",
    "metric": "pIC50",
    "numeric.readout": 6.62
  }
]

Parameters: items (list). Returns: pIC50 for each item.
1. NC(=O)CC[C@H](NC(=O)[C@H]1CCCN1C(=O)OCc1ccccc1)C(=O)N[C@@H](CCC(N)=O)C(=O)OCc1ccccc1
2. NC(=O)CC[C@H](NC(=O)[C@H](CCC(N)=O)NC(=O)[C@H]1CCCN1)C(=O)N[C@H](Cc1c[nH]c2ccccc12)C(=O)N[C@@H](Cc1ccccc1)C(=O)N[C@H](Cc1c[nH]c2ccccc12)C(=O)N[C@H](Cc1c[nH]c2ccccc12)C(=O)N[C@@H](Cc1ccccc1)C(N)=O
3. CC(C)(C)OC(=O)N[C@@H](CCC(N)=O)C(=O)N[C@H](Cc1cn(C=O)c2ccccc12)C(=O)N[C@@H](Cc1ccccc1)C(=O)OCC1CCCCC1

[5.00, 6.22, 6.40]

---

Target: Substance-P receptor (Cavia porcellus, UniProt P30547)
Sequence (P30547 whole entry): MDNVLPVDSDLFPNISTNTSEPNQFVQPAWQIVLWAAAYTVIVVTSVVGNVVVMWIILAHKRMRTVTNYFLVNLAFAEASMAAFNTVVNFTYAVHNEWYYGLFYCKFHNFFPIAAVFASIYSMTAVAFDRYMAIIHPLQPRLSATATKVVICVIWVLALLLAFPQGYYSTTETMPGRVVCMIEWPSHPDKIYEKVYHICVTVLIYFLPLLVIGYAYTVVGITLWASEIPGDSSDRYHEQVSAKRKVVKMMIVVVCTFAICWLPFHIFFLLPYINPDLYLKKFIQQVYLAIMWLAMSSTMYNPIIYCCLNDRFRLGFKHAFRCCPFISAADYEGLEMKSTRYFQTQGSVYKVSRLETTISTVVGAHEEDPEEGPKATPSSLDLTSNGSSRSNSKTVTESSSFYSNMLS
Test: Displacement of specific binding of [3H]SP to tachykinin receptor 1 from the isolated guinea pig tracheal strips
pIC50: −log10 of the molar value.
# if value of pIC50 reaches 6, tag condition met; if it stays below, tag condition not met

A selection of reference data follows.
[
  {
    "smi": "O=C1CC[C@@H](C(=O)N[C@H](Cc2c[nH]c3ccccc23)C(=O)N[C@@H](Cc2ccccc2)C(=O)O)N1",
    "group.label": "condition not met"
  },
  {
    "smi": "CC(C)(C)OC(=O)N[C@H](Cc1c[nH]c2ccccc12)C(=O)N[C@H](Cc1c[nH]c2ccccc12)C(=O)N[C@@H](Cc1ccccc1)C(=O)OCc1ccccc1",
    "group.label": "condition not met"
  },
  {
    "smi": "CC(C)(C)OC(=O)N[C@@H](CCC(N)=O)C(=O)N[C@H](Cc1c[nH]c2ccccc12)C(=O)N[C@@H](Cc1ccccc1)C(=O)O",
    "group.label": "condition not met"
  },
  {
    "smi": "NC(=O)CC[C@H](N)C(=O)N[C@H](Cc1cn(C=O)c2ccccc12)C(=O)N[C@@H](Cc1ccccc1)C(=O)OCc1ccccc1",
    "group.label": "condition met"
  },
  {
    "smi": "O=C(N[C@@H](Cc1ccccc1)C(=O)N[C@H](Cc1c[nH]c2ccccc12)C(=O)N[C@H](Cc1c[nH]c2ccccc12)C(=O)O)OCc1ccccc1",
    "group.label": "condition not met"
  },
  {
    "smi": "CC(C)(C)OC(=O)N[C@@H](CCC(N)=O)C(=O)N[C@H](Cc1cn(C=O)c2ccccc12)C(=O)N[C@@H](Cc1ccccc1)C(=O)O",
    "group.label": "condition not met"
  },
  {
    "smi": "NC(=O)CC[C@H](NC(=O)[C@@H]1CCC(=O)N1)C(=O)N[C@H](Cc1c[nH]c2ccccc12)C(=O)O",
    "group.label": "condition not met"
  },
  {
    "smi": "CC(C)(C)OC(=O)N[C@@H](CCC(N)=O)C(=O)N[C@H](Cc1c[nH]c2ccccc12)C(=O)N[C@@H](Cc1ccccc1)C(N)=O",
    "group.label": "condition not met"
  }
]

Is pIC50 for CC(C)(C)OC(=O)N[C@@H](CCC(N)=O)C(=O)N[C@H](Cc1cn(C=O)c2ccccc12)C(=O)N[C@@H](Cc1ccc(O)cc1)C(=O)OCc1ccccc1 at or above 6?
condition met

API: above_or_equal(metric=pIC50, cutoff=6) for item CC(C)(C)OC(=O)N[C@@H](CCC(N)=O)C(=O)N[C@H](Cc1ccccc1)C(=O)N[C@@H](Cc1ccccc1)C(=O)OCc1ccccc1
condition met

hey, is pIC50 for this one >= 6? CC(C)(C)OC(=O)N[C@@H](Cc1ccc(O)cc1)C(=O)N[C@H](Cc1cn(C=O)c2ccccc12)C(=O)N[C@@H](Cc1ccccc1)C(=O)OCc1ccccc1
condition met

Decide: is the reported value of pIC50 for NC(=O)CC[C@H](NC(=O)[C@H](CCC(N)=O)NC(=O)[C@H]1CCCN1)C(=O)O equal to or greater than 6?
condition not met

Hi, just wondering whether NC(=O)[C@@H](Cc1c[nH]c2ccccc12)NC(=O)[C@H](Cc1ccccc1)NC(=O)[C@@H](Cc1c[nH]c2ccccc12)NC(=O)OCc1ccccc1 shows pIC50 of 6 or higher.
condition not met

Threshold query (pIC50 >= 6) on CC(C)(C)OC(=O)N1CCC[C@@H]1C(=O)N[C@@H](CCC(N)=O)C(=O)N[C@@H](CCC(N)=O)C(=O)OCc1ccccc1
condition not met

In plain terms: is recorded pIC50 at least 6 for O=C(N[C@@H](Cc1ccccc1)C(=O)N[C@H](Cc1c[nH]c2ccccc12)C(=O)N[C@H](Cc1c[nH]c2ccccc12)C(=O)OCc1ccccc1)OCc1ccccc1 ?
condition not met
